Reference source: ChEMBL document CHEMBL5113498

Let's look at some compounds and their measured inhibition.
System: Bacteria
Experiment: Inhibition of IMP-1 (unknown origin) using imipenem as substrate at 50 uM by spectrophotometric assay relative to control

Example entries and their recorded answers appear below.
1) Oc1cccc2ccc(/C=C/c3ccccc3)nc12 84%
2) O=C1/C(=C/c2ccc(O)c(O)c2)Cc2cc(O)cc(O)c21 23%
3) Oc1cccc2ccc(CCc3ccc4c(c3)OCO4)nc12 71%
4) O=C1/C(=C/c2ccc(N3CCCCC3)cc2)Oc2cc(O)cc(O)c21 < 20%
5) Oc1cccc2ccc(CCc3ccccc3)nc12 76%

Kindly review the next compound as well.
inhibition lookup needed for "Oc1cccc2ccc(/C=C/c3ccc4c(c3)OCO4)nc12" , thanks. 79%

====

Let's look at some molecules and their measured inhibition.
Tested on: Bacteria
Experiment: Inhibition of VIM-2 (unknown origin) using imipenem as substrate at 50 uM by spectrophotometric assay relative to control
The figure you give is taken to be in %; do not add the unit.

inhibition lookup needed for "Oc1cccc2ccc(CCc3ccccc3)nc12" , thanks. 28

inhibition lookup needed for "Oc1cccc2ccc(/C=C/c3ccccc3)nc12" , thanks. 37

inhibition lookup needed for "Oc1cccc2ccc(CCc3ccc4c(c3)OCO4)nc12" , thanks. 38

inhibition lookup needed for "Oc1cccc2ccc(/C=C/c3ccc4c(c3)OCO4)nc12" , thanks. 26

====

Let's look at some molecules and their measured Ki.
Experiment: Inhibition of […] (unknown origin) using imipenem as substrate by spectrophotometric assay relative to control
Set-up: species or system Bacteria
The figure you give is taken to be in µM; do not add the unit.

Example entries and their recorded answers appear below.
1) O=C1/C(=C/c2ccc(O)c(O)c2)Cc2cc(O)cc(O)c21 4.1
2) Oc1cccc2ccc(CCc3ccc4c(c3)OCO4)nc12 1.1
3) O=C1/C(=C/c2ccc(N3CCCCC3)cc2)Oc2cc(O)cc(O)c21 4.8

Kindly review the next molecule as well.
Ki lookup needed for "Oc1cccc2ccc(/C=C/c3ccccc3)nc12" , thanks. 2.2
